target-under-test: Avi-KRAS G12R (1-169) GppNHp/RAF1 RBD-3xFLAG (52-151) (Homo sapiens, UniProt P01116, G12R)
Construct: Avi-KRAS G12R (1-169)
Sequence (P01116 1-169 isoform P01116-2 G12R): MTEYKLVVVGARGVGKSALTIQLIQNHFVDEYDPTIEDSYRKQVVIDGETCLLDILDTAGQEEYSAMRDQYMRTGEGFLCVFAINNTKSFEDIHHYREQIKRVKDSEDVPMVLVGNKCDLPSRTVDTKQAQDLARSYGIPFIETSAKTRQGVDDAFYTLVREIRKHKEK
test-summary: Raf1-KRAS G12R-GppNHP disruption HTRF assay (Biological Example 1)
Type: binding
test-parameters: KRAS G12R-GppNHp/RAF1 RBD HTRF
pIC50: −log10 of the molar value.
Entries annotated with measured pIC50

query-smiles | target-under-test | pIC50
CC(=O)N1CC[C@@](C)(N(C)c2nc(OC[C@@]34CCCN3C[C@H](F)C4)nc3c(F)c(-c4ccc(F)c5sc(N)c(C#N)c45)c(C(F)(F)F)cc23)[C@H]1C | Avi-KRAS G12R (1-169) GppNHp/RAF1 RBD-3xFLAG (52-151) (Homo sapiens, UniProt P01116, G12R) | 5.00 to 6.00
C[C@@H]1[C@H](N(C)c2nc(OC[C@@]34CCCN3C[C@H](F)C4)nc3c(F)c(-c4ccc(F)c5sc(N)c(C#N)c45)c(C(F)(F)F)cc23)CCN1C(=O)C1(F)CC1 | Avi-KRAS G12R (1-169) GppNHp/RAF1 RBD-3xFLAG (52-151) (Homo sapiens, UniProt P01116, G12R) | 6.00 to 7.00
Cn1ncc2c1CN(c1nc(OC[C@@]34CCCN3C[C@H](F)C4)nc3c(F)c(-c4ccc(F)c5sc(N)c(C#N)c45)c(C(F)(F)F)cc13)CC2 | Avi-KRAS G12R (1-169) GppNHp/RAF1 RBD-3xFLAG (52-151) (Homo sapiens, UniProt P01116, G12R) | < 5.00
CN(c1nc(OC[C@@]23CCCN2C[C@H](F)C3)nc2c(F)c(-c3ccc(F)c4sc(N)c(C#N)c34)c(C(F)(F)F)cc12)C12CC(CO)(C1)C2 | Avi-KRAS G12R (1-169) GppNHp/RAF1 RBD-3xFLAG (52-151) (Homo sapiens, UniProt P01116, G12R) | 6.00 to 7.00
C[C@H]1N(C(=O)C2CC2)CC[C@@]1(C)N(C)c1nc(OC[C@@]23CCCN2C[C@H](F)C3)nc2c(F)c(-c3ccc(F)c4sc(N)c(C#N)c34)c(C(F)(F)F)cc12 | Avi-KRAS G12R (1-169) GppNHp/RAF1 RBD-3xFLAG (52-151) (Homo sapiens, UniProt P01116, G12R) | < 5.00
